- measurement target: high affinity nicotinic receptors
- assay details: Inhibition of L-[3H]nicotine binding to mouse brain membranes
- experimental setup: 2 hr incubation at 4° C., Ki calculated from IC50 by method of Cheng
pKi: −log10 of the molar value.

molecule | measurement target | pKi
c1ccc(C2CCCN2)nc1 (racemic) | high affinity nicotinic receptors | 5.24
